target: Macrophage metalloelastase (Homo sapiens, UniProt P39900); test: Binding affinity to recombinant human 15N-labelled MMP12 catalytic domain (Gly106 to Gly263 residues) expressed in Escherichia coli BL21 Codon Plus cells assessed as ratio of peak intensities of L212 and I220 in bound versus the unbound form at 10 uM by 1D-1H NMR analysis
Sequence (P39900 106-470 limits assumed): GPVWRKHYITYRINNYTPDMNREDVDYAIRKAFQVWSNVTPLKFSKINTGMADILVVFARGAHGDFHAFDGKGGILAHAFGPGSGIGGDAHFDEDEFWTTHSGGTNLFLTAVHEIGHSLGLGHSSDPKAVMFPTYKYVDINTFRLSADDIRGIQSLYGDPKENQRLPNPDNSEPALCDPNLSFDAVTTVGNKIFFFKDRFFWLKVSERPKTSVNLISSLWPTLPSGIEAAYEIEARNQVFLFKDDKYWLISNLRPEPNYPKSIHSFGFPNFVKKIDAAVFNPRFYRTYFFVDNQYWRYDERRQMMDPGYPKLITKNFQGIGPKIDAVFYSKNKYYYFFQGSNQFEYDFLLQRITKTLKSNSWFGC
Non-standard residues stand in square brackets, D forms with d. Residues, ends and D or L forms follow the SMILES beside them. *: point of attachment. dPhe(3-F) = N[C@H](Cc1cccc(F)c1)C(=O)O; dPhe(4-F) = N[C@H](Cc1ccc(F)cc1)C(=O)O; 2Nal = N[C@@H](Cc1ccc2ccccc2c1)C(=O)O; d(hPhe) = N[C@H](CCc1ccccc1)C(=O)O; Bn = c1ccc(C*)cc1; NHOH = ON*
Readout: Ratio

Example cases with answers are listed next.
{"Compound": "CC(=O)N[C@@H](COCc1ccccc1)C(=O)N[C@H](CCc1ccccc1)C(=O)N[C@H](Cc1cccc(F)c1)C(=O)NO (Ac-Ser(Bn)-[d(hPhe)]-[dPhe(3-F)]-{NHOH})", "Result": "> 1"}
{"Compound": "COc1ccc(CCC[C@H](NC(C)=O)C(=O)N[C@H](CCc2ccccc2)C(=O)N[C@H](Cc2ccccc2)C(=O)NO)cc1", "Result": "> 1"}
{"Compound": "CC(=O)N[C@@H](Cc1ccc2ccccc2c1)C(=O)N[C@H](CCc1ccccc1)C(=O)N[C@H](Cc1ccccc1)C(=O)NO (Ac-[2Nal]-[d(hPhe)]-[dF]-{NHOH})", "Result": "< 1"}
{"Compound": "CC(=O)N[C@@H](COCc1ccccc1)C(=O)N[C@H](CCc1ccccc1)C(=O)N[C@H](Cc1ccccc1)C(=O)NO (Ac-Ser(Bn)-[d(hPhe)]-[dF]-{NHOH})", "Result": "> 1"}

The compound listed as CC(=O)N[C@@H](COCc1ccccc1)C(=O)N[C@H](CCc1ccccc1)C(=O)N[C@H](Cc1ccc(F)c(F)c1F)C(=O)NO shows Ratio equal to 1

Ratio reported for this compound CC(=O)N[C@@H](COCc1ccccc1)C(=O)N[C@H](CCc1ccccc1)C(=O)N[C@H](Cc1ccc(OC(C)=O)cc1)C(=O)NO (Ac-Ser(Bn)-[d(hPhe)]-[dY](Ac)-{NHOH}) : 1

Entry CC(=O)N[C@@H](COCc1ccccc1)C(=O)N[C@H](CCc1ccccc1)C(=O)N[C@H](Cc1ccc(F)cc1)C(=O)NO (Ac-Ser(Bn)-[d(hPhe)]-[dPhe(4-F)]-{NHOH}) , Ratio reported as > 1

* * *

assay: Half life in Balb/c mouse at 30 mg/kg, ip by LC-MS/MS analysis; assay type: ADME, organism-based; settings: in vivo
Readout: half-life (h)
Entry rule: numbers only, all in h.

Input COc1ccc(CC[C@@H](NC(=O)[C@H](CCCc2ccccc2)NC(=O)CN2CCOCC2)C(=O)N[C@H](Cc2ccc(C)cc2)C(=O)NO)cc1 . Output half-life: 5

* * *

target: Macrophage metalloelastase (Homo sapiens, UniProt P39900); test: Inhibition of recombinant human MMP12 catalytic domain (Gly106 to Gly263 residues) expressed in Escherichia coli BL21 Codon Plus cells using 5-FAM/QXL520 FRET peptide as substrate preincubated for 15 mins followed by substrate addition and measured at 3 mins interval for 60 mins by fluorescence assay
Sequence (P39900 whole entry, the tested form may be a part): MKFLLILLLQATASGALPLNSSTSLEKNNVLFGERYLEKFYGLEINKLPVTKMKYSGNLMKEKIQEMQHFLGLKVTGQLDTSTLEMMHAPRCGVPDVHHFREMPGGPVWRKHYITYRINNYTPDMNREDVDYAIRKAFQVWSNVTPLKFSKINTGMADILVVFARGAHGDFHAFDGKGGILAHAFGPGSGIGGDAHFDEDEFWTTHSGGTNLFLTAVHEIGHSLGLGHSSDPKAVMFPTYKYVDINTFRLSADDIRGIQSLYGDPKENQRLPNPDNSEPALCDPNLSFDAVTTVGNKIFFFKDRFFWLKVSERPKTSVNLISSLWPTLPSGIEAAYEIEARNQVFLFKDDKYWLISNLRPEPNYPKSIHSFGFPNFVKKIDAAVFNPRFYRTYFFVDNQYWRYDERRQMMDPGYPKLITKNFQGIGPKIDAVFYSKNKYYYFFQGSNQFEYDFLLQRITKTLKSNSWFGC
pIC50: −log10 of the molar value. Non-standard residues stand in square brackets, D forms with d. Residues, ends and D or L forms follow the SMILES beside them. *: point of attachment. dPhe(4-CF3) = N[C@H](Cc1ccc(C(F)(F)F)cc1)C(=O)O; dPhe(3-Cl) = N[C@H](Cc1cccc(Cl)c1)C(=O)O; dPhe(3-Me) = Cc1cccc(C[C@@H](N)C(=O)O)c1; dPhe(4-Me) = Cc1ccc(C[C@@H](N)C(=O)O)cc1; 2Nal = N[C@@H](Cc1ccc2ccccc2c1)C(=O)O; dPhe(2-F) = N[C@H](Cc1ccccc1F)C(=O)O; d(hPhe) = N[C@H](CCc1ccccc1)C(=O)O; Bn = c1ccc(C*)cc1; NHOH = ON*
Readout: pIC50

In the examples that follow, each entry is paired with its recorded pIC50.
{"Compound": "CC(=O)N[C@@H](COCc1ccccc1)C(=O)N[C@H](CCc1ccccc1)C(=O)N[C@H](Cc1ccccc1F)C(=O)NO (Ac-Ser(Bn)-[d(hPhe)]-[dPhe(2-F)]-{NHOH})", "pIC50": 7.56}
{"Compound": "CC(=O)N[C@@H](COCc1ccccc1)C(=O)N[C@H](CCc1ccccc1)C(=O)N[C@H](Cc1ccc(O)cc1)C(=O)NO (Ac-Ser(Bn)-[d(hPhe)]-[dY]-{NHOH})", "pIC50": 7.38}
{"Compound": "CC(=O)N[C@@H](Cc1ccc2ccccc2c1)C(=O)N[C@H](CCc1ccccc1)C(=O)N[C@H](Cc1ccccc1)C(=O)NO (Ac-[2Nal]-[d(hPhe)]-[dF]-{NHOH})", "pIC50": 6.86}
{"Compound": "CC(=O)N[C@@H](COCc1ccccc1)C(=O)N[C@H](CCc1ccccc1)C(=O)N[C@H](Cc1ccc(OC(C)=O)cc1)C(=O)NO (Ac-Ser(Bn)-[d(hPhe)]-[dY](Ac)-{NHOH})", "pIC50": 7.44}
{"Compound": "CC(=O)N[C@@H](COCc1ccccc1)C(=O)N[C@H](CCc1ccccc1)C(=O)N[C@H](Cc1cccc(Cl)c1)C(=O)NO (Ac-Ser(Bn)-[d(hPhe)]-[dPhe(3-Cl)]-{NHOH})", "pIC50": 7.33}
{"Compound": "COc1ccc(CCC[C@H](NC(=O)CN2CCOCC2)C(=O)N[C@H](CCc2ccc(OC)cc2)C(=O)N[C@H](Cc2ccc(C)cc2)C(=O)NO)cc1", "pIC50": 8.36}
{"Compound": "CC(=O)N[C@@H](Cc1c[nH]c2ccccc12)C(=O)N[C@H](CCc1ccccc1)C(=O)N[C@H](Cc1ccccc1)C(=O)NO (HELM PEPTIDE1{[ac].W.[O=C([C@@H](CCc1ccccc1)N[*:1])[*:2]].[dF].[ON[*:1]]}$$$$V2.0)", "pIC50": 7.46}

P = COc1ccc(CC[C@@H](NC(=O)[C@H](CCCc2ccccc2)NC(=O)CN2CCOCC2)C(=O)N[C@H](Cc2ccc(C)cc2)C(=O)NO)cc1
Q = CC(=O)N[C@@H](COCc1ccccc1)C(=O)N[C@H](CCc1ccccc1)C(=O)N[C@H](Cc1cccc(C)c1)C(=O)NO (Ac-Ser(Bn)-[d(hPhe)]-[dPhe(3-Me)]-{NHOH})
R = CC(=O)N[C@@H](COCc1ccccc1)C(=O)N[C@H](CCc1ccccc1)C(=O)N[C@H](Cc1ccc(C(F)(F)F)cc1)C(=O)NO (Ac-Ser(Bn)-[d(hPhe)]-[dPhe(4-CF3)]-{NHOH})
S = CC(=O)N[C@@H](COCc1ccccc1)C(=O)N[C@H](CCc1ccccc1)C(=O)N[C@H](Cc1ccc(C)cc1)C(=O)NO (Ac-Ser(Bn)-[d(hPhe)]-[dPhe(4-Me)]-{NHOH})
-- ask Arrange by pIC50, high to low. Please list each label once, in the requested order.
-- reply P, S, Q, R

* * *

molecular target: Macrophage metalloelastase (Homo sapiens, UniProt P39900); experiment: Binding affinity to recombinant human 15N-labelled MMP12 catalytic domain (Gly106 to Gly263 residues) expressed in Escherichia coli BL21 Codon Plus cells assessed as ratio of peak intensities of L212 and I220 in bound versus the unbound form at 10 uM by 1D-1H NMR analysis
Calls of active or inactive are those of the source. The calls are words filed in the database; no cut-off is given here. Non-standard residues stand in square brackets, D forms with d. Residues, ends and D or L forms follow the SMILES beside them. *: point of attachment. dPhe(4-CF3) = N[C@H](Cc1ccc(C(F)(F)F)cc1)C(=O)O; dBip = N[C@H](Cc1ccc(-c2ccccc2)cc1)C(=O)O; dPhe(4-Cl) = N[C@H](Cc1ccc(Cl)cc1)C(=O)O; dPhe(4-Me) = Cc1ccc(C[C@@H](N)C(=O)O)cc1; dPhe(2-Me) = Cc1ccccc1C[C@@H](N)C(=O)O; d(hPhe) = N[C@H](CCc1ccccc1)C(=O)O; Bn = c1ccc(C*)cc1; NHOH = ON*
Readout: Ratio

{"Molecule": "CC(=O)N[C@@H](CCCc1ccccc1)C(=O)N[C@H](CCc1ccccc1)C(=O)N[C@H](Cc1ccccc1)C(=O)NO", "System under test": "Macrophage metalloelastase (Homo sapiens, UniProt P39900)", "Ratio": "> 1"}
{"Molecule": "CC(=O)N[C@@H](COCc1ccccc1)C(=O)N[C@H](CCc1ccccc1)C(=O)N[C@H](Cc1ccc(Cl)cc1)C(=O)NO (Ac-Ser(Bn)-[d(hPhe)]-[dPhe(4-Cl)]-{NHOH})", "System under test": "Macrophage metalloelastase (Homo sapiens, UniProt P39900)", "Ratio": "> 1"}
{"Molecule": "CC(=O)N[C@@H](COCc1ccccc1)C(=O)N[C@H](CCc1ccccc1)C(=O)N[C@H](Cc1ccccc1C)C(=O)NO (Ac-Ser(Bn)-[d(hPhe)]-[dPhe(2-Me)]-{NHOH})", "System under test": "Macrophage metalloelastase (Homo sapiens, UniProt P39900)", "Ratio": "< 1"}
{"Molecule": "CC(=O)N[C@@H](COCc1ccccc1)C(=O)N[C@H](CCc1ccccc1)C(=O)N[C@H](Cc1ccc(C)cc1)C(=O)NO (Ac-Ser(Bn)-[d(hPhe)]-[dPhe(4-Me)]-{NHOH})", "System under test": "Macrophage metalloelastase (Homo sapiens, UniProt P39900)", "Ratio": "> 1"}
{"Molecule": "COc1ccc(CC[C@@H](NC(=O)[C@H](COCc2ccccc2)NC(C)=O)C(=O)N[C@H](Cc2ccccc2)C(=O)NO)cc1", "System under test": "Macrophage metalloelastase (Homo sapiens, UniProt P39900)", "Ratio": "> 1"}

// sample CC(=O)N[C@@H](COCc1ccccc1)C(=O)N[C@H](CCCc1ccccc1)C(=O)N[C@H](Cc1ccccc1)C(=O)NO , its Ratio was < 1

The measured Ratio associated with CC(=O)N[C@@H](COCc1ccccc1)C(=O)N[C@H](Cc1ccc(-c2ccccc2)cc1)C(=O)N[C@H](Cc1ccccc1)C(=O)NO (Ac-Ser(Bn)-[dBip]-[dF]-{NHOH}) reads inactive

Ratio reported for this molecule CC(=O)N[C@@H](COCc1ccccc1)C(=O)N[C@H](CCc1ccccc1)C(=O)N[C@H](Cc1ccc(C(F)(F)F)cc1)C(=O)NO (Ac-Ser(Bn)-[d(hPhe)]-[dPhe(4-CF3)]-{NHOH}) : 1
